- Target of assay: T1, human FLT3 (hFLT3) expressed on cells (human, UniProt P36888 27-993)
- T1 construct: whole, on cells; One molecule for all cell lines that carry human FLT3; also called RMA-hFLT3; FLT3 on REH cells
- T1 sequence (looked up): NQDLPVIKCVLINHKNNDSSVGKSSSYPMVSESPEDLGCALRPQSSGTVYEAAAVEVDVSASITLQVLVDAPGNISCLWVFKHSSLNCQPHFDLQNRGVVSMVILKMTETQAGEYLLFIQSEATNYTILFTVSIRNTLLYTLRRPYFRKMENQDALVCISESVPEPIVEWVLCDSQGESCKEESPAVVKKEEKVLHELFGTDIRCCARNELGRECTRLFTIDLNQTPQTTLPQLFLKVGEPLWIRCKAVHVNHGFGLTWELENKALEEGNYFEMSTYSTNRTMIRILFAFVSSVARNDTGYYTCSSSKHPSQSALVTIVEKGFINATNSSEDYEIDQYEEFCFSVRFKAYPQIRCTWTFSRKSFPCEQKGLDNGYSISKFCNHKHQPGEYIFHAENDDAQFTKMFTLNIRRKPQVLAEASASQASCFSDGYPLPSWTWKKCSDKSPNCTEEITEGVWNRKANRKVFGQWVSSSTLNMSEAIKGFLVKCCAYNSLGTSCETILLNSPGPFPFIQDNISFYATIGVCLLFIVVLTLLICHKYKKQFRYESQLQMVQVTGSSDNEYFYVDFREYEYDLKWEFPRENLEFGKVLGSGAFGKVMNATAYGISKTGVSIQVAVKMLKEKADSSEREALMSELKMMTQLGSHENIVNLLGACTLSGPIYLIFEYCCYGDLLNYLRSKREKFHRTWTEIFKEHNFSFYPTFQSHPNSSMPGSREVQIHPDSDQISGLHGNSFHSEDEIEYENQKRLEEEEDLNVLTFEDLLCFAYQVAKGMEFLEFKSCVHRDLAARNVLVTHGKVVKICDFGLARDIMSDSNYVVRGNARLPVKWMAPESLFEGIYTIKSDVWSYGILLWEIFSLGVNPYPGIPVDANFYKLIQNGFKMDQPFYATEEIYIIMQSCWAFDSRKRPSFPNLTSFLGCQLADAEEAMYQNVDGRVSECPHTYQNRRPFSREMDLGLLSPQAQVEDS
- Measurement description: flow cytometry, purified mAb on RMA-hFLT3 cells
Value type: Max MFI (MFI)

Binder	Value type	Unit	Value observed
4A4.A3 (antibody, V domains shown, Purified murine mAb from a hybridoma subclone) VH: QVTLKESGPGILQPSQTLSLTCSFSGFSLTTYGMGVGWIRQPSGKGLEWLANIWFNDNKYYNSTLKSRLTISKDTSNNQVFLKISSVDTTDTATYYCAQITTVVGTFDYWGQGSPLTVSP VL: RIVMTQSPTTMAASPGEKITITCSASSSISSIYLHWYQQKPGFSPKLLIFRTSDLASGVPPRFGGSGSGTSYSLTIGTMEAEDVATYYCQQGSSFPRTFGGGTKLEIK	Max MFI	MFI	1020
14A5.E8 (antibody, V domains shown, Purified murine mAb from a hybridoma subclone) VH: EVQLQESGAELVQPGASVRLSCKASGYTFTSYWINWVKQRPGQGLEWIGNIYPGSSIINYNENFKNRATLTVDTSSSTAYMQLSSLTSDDSAVYYCARRVVYLYFDYWGQGTTLTVSS VL: QIVLTQSPAIMSASPGEKVTMTCSASSSVSYMHWYQQKSGTSPKRWIYDTSKLASGVPARFSGSGSGTSYSLTISSMEAEDAATYYCQQWTSKSPTFGGGTKLEIK	Max MFI	MFI	415
4H2.E3 (antibody, V domains shown, Purified murine mAb from a hybridoma subclone) VH: EVQLQESGPELVKPGASVKMSCKASGYTFTSYLMHWMKQKPGQGLEWIGYINPYSDGIKYNEKFRDKATLTSDKSSNTAYMELSSLTSEDSAVYYCAHSSGYVGYAMDYWGQGTSVTVSS VL: GIVMTQTTPSVPVTPGESVSISCRSSKSLLHSNGNTYLYWFLQRPGQSPQLLIYRMSNLASGVPDRFSGSGSGTTFTLRISRVEAEDVGVYYCMQHLEYPFTFGSGTKLEIK	Max MFI	MFI	696
